system: bone resorption activities by PTH; format: in vivo, rat (Wister male); conditions: sc, 10 mg/kg, 24 h
The label is criterion met for Serum calcium value, 1 day value (b) below 80 µg/mL and criterion not met for Serum calcium value, 1 day value (b) equal to or exceeding 80 µg/mL.

COMPOUND | CLASSIFICATION
CCOP(=O)(OCC)C(N1CCC(C(N)=O)(N2CCCCC2)CC1)P(=O)(OCC)OCC | criterion met
CCCC=C1CCN(C(P(=O)(OCC)OCC)P(=O)(OCC)OCC)CC1 | criterion met
CCOP(=O)(OCC)C(N1CCC(C)(F)CC1)P(=O)(OCC)OCC | criterion met
NCCC(O)(P(=O)(O)O)P(=O)(O)O [APD, reference compound] | criterion not met
CCOP(=O)(OCC)C(N1CCC(F)(F)CC1)P(=O)(OCC)OCC | criterion met
CC(C)(C)C1(O)CCN(C(P(=O)(O)O)P(=O)(O)O)CC1 | criterion met
O=P(O)(O)C(N1CCCC2(CCCCC2)C1)P(=O)(O)O | criterion not met
O=P(O)(O)C(N1CCC2(CCCCC2)CC1)P(=O)(O)O | criterion not met
O=P(O)(O)C(N1CCC2(CC1)CC2(F)F)P(=O)(O)O | criterion not met
O=P(O)(O)C(N1CCCCC12CCCCC2)P(=O)(O)O | criterion not met
CCCCCC=C1CCN(C(P(=O)(O)O)P(=O)(O)O)CC1 | criterion met
C=C1CCN(C(P(=O)(O)O)P(=O)(O)O)CC1 | criterion met
CCC=C1CCN(C(P(=O)(O)O)P(=O)(O)O)CC1 | criterion met
CC1(C)CCN(C(P(=O)(O)O)P(=O)(O)O)CC1 | criterion not met
CC1(O)CCN(C(P(=O)(O)O)P(=O)(O)O)CC1 | criterion met
O=P(O)(O)C(N1CCCC12CCCCC2)P(=O)(O)O | criterion not met
CC1(C)CCCN(C(P(=O)(O)O)P(=O)(O)O)C1 | criterion not met
CC1(Cl)CCN(C(P(=O)(O)O)P(=O)(O)O)CC1 | criterion met
O=P(O)(O)C(N1CCC2(CCCC2)CC1)P(=O)(O)O | criterion not met
CCCCCCC1(O)CCN(C(P(=O)(O)O)P(=O)(O)O)CC1 | criterion not met
CC=C1CCN(C(P(=O)(O)O)P(=O)(O)O)CC1 | criterion met

====

assay: toxicity, LD50, subcutaneous injection to mice; conditions: mouse, in vivo, sc, ddy mice male five weeks old (22-27 g)
Each entry below lists one item and its recorded LD50 value.
MEASUREMENT_NAME: LD50

MOL_SMILES | REPORTED
CC1(C)CCCN(C(P(=O)(O)O)P(=O)(O)O)C1 | ≥ 100 mg/kg
CCCCCC=C1CCN(C(P(=O)(O)O)P(=O)(O)O)CC1 | ≥ 100 mg/kg
CC1(O)CCN(C(P(=O)(O)O)P(=O)(O)O)CC1 | ≥ 100 mg/kg
C=C1CCN(C(P(=O)(O)O)P(=O)(O)O)CC1 | ≥ 100 mg/kg
CC=C1CCN(C(P(=O)(O)O)P(=O)(O)O)CC1 | ≥ 100 mg/kg
CC1(Cl)CCN(C(P(=O)(O)O)P(=O)(O)O)CC1 | ≥ 100 mg/kg
O=P(O)(O)C(N1CCC2(CCCCC2)CC1)P(=O)(O)O | ≥ 100 mg/kg
